target: B-Raf (V600E)-kinase (Homo sapiens (Human), UniProt P15056, V600E); assay: Kinase test B-Raf (V600E); details: 250 μM ATP, biotinylated MEK1 substrate
Sequence (P15056 whole entry V600E): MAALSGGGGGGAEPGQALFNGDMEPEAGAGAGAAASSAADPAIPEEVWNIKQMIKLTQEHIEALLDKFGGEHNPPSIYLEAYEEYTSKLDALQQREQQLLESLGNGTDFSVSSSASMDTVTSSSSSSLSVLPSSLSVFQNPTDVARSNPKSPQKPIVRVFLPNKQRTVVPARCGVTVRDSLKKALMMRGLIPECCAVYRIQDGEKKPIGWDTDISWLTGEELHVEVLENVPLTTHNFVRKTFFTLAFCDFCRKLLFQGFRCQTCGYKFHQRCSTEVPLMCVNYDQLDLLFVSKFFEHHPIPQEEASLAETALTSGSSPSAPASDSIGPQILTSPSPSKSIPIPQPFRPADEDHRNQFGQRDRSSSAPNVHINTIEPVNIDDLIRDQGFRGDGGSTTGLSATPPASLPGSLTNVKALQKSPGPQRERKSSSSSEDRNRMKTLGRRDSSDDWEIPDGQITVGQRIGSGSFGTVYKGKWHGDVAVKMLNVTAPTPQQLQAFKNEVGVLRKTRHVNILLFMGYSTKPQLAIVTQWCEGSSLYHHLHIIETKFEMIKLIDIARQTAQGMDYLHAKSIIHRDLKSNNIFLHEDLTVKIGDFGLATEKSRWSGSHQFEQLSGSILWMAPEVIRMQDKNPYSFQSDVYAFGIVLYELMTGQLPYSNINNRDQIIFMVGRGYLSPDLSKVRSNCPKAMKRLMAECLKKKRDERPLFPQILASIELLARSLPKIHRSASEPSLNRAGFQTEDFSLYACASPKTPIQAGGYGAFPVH
pIC50: −log10 of the molar value.
Reported pIC50 values for a set of compounds
Observed Property: pIC50

>>> experimental_result("COc1ccc(NC(=O)c2ccc(C)c(Nc3ncnc4cnc(N5CCCC5)cc34)c2)cc1C(F)(F)F [I-3]")
6.50
>>> experimental_result("CCN1CCN(c2ccc3ncnc(Nc4cc(C(=O)Nc5cc(C(C)(C)C)cc(NS(C)(=O)=O)c5OC)ccc4C)c3n2)CC1 [III-23]")
6.29
>>> experimental_result("Cc1ccc(NC(=O)c2cccc(C(C)(C)C#N)c2)cc1Nc1ncnc2ccc(N3CCOCC3)nc12 [IV-1]")
8.40
>>> experimental_result("Cc1ccc(NC(=O)c2cccc(C(C)(C)C#N)c2)cc1Nc1ncnc2ccc(N[C@H]3CCOC3)nc12 [IV-5]")
8.30
>>> experimental_result("COc1c(NC(=O)c2ccc(C)c(Nc3ncnc4ccc(N(C)C5CCOC5)nc34)c2)cc(C(C)(C)C)cc1NS(C)(=O)=O (centres unmarked) [III-20]")
7.62
>>> experimental_result("COCCN1CCN(c2ccc3ncnc(Sc4cc(C(=O)Nc5cc(C(C)(C)C)cc(NS(C)(=O)=O)c5OC)ccc4C)c3n2)CC1 [III-55]")
5.79
>>> experimental_result("COc1c(NC(=O)c2ccc(C)c(Nc3ncnc4ccc(N5CCC(N6CCOCC6)C5)nc34)c2)cc(C(C)(C)C)cc1NS(C)(=O)=O (centres unmarked) [III-26]")
5.84
>>> experimental_result("CCOCCN1CCC(Cc2ccc3ncnc(Nc4cc(C(=O)Nc5cc(C(C)(C)C)cc(NS(C)(=O)=O)c5OC)ccc4C)c3n2)CC1 [III-50]")
6.32
>>> experimental_result("COc1ccc(NC(=O)c2ccc(C)c(Nc3ncnc4cnc(N5CCOCC5)cc34)c2)cc1C(F)(F)F [I-1]")
6.97
>>> experimental_result("CCN1CCC(c2ccc3ncnc(Nc4cc(C(=O)Nc5cc(C(C)(C)C)cc(NS(C)(=O)=O)c5OC)ccc4C)c3n2)CC1 [III-33]")
6.73
>>> experimental_result("Cc1ccc(C(=O)Nc2cc(C(C)(C)C)on2)cc1Nc1ncnc2ccc(N(C)C)nc12 [III-17]")
8.05
>>> experimental_result("COCCN1CCN(c2ccc3ncnc(Nc4cc(C(=O)Nc5cc(C(C)(C)C)cc(NS(C)(=O)=O)c5OC)ccc4C)c3n2)CC1 [III-19]")
6.32
>>> experimental_result("Cc1ccc(NC(=O)c2cccc(C(C)(C)C#N)c2)cc1Nc1ncnc2ccc(N3CCN(C)CC3)nc12 [IV-2]")
8.10
>>> experimental_result("COc1c(NC(=O)c2ccc(C)c(Nc3ncnc4ccc(C5CCNCC5)nc34)c2)cc(C(C)(C)C)cc1NS(C)(=O)=O [III-31]")
7.15
>>> experimental_result("COc1ccc(NC(=O)c2ccc(C)c(Nc3ncnc4ccc(N(C)C)nc34)c2)cc1C(F)(F)F [III-16]")
7.36
>>> experimental_result("COc1c(NC(=O)c2ccc(C)c(Nc3ncnc4ccc(CC5CNCCOC5)nc34)c2)cc(C(C)(C)C)cc1NS(C)(=O)=O (centres unmarked) [III-43]")
6.67
>>> experimental_result("Cc1ccc(NC(=O)c2cccc(C(C)(C)C#N)c2)cc1Nc1ncnc2ccc(N3CC[C@H](F)C3)nc12 [IV-4]")
7.96
>>> experimental_result("Cc1ccc(C(=O)Nc2cc(C(C)(C)C)n[nH]2)cc1Nc1ncnc2ccc(N3CCOCC3)nc12 [III-5]")
8.15
>>> experimental_result("COc1c(NC(=O)c2ccc(C)c(Nc3ncnc4ccc(N5CC[C@@H](F)C5)nc34)c2)cc(C(C)(C)C)cc1NS(C)(=O)=O [III-22]")
7.60
>>> experimental_result("COCCN1CCC(c2ccc3ncnc(Nc4cc(C(=O)Nc5cc(C(C)(C)C)cc(NS(C)(=O)=O)c5OC)ccc4C)c3n2)C1 (centres unmarked) [III-41]")
6.50
